experiment: Acute toxicity, LD50 in mice after intraperitoneal administration; conditions: mouse, in vivo, ip, determined 48 hours after administration
Where a name gives a salt, the structure may show the parent alone.
recorded metric: LD50 at 48 h

Q: Check the records and state LD50 at 48 h for CN(C)CCC(Oc1ccc([N+](=O)[O-])cc1)c1ccccc1 (stereo not shown) [Example 1, oxalate]
A: ~75 mg/kg
